experiment: Stability of pitavastatin calcium crystalline form at 40° C./75% RH and 25° C./60% RH (water by KF, related substances); assay type: physicochemical; settings: 3 month, 25° C. ± 2° C., RH 60% ± 5%
MEASUREMENT KIND: Related Substances: 5-oxo (%)
Numbers only, in %.

Recorded Related Substances: 5-oxo of O=C(O)C[C@H](O)C[C@H](O)/C=C/c1c(C2CC2)nc2ccccc2c1-c1ccc(F)cc1 , please.
0.12

* * *

experiment: Stability of pitavastatin calcium crystalline form at 40° C./75% RH and 25° C./60% RH (water by KF, related substances); format: physicochemical; conditions: 3 month, 25° C. ± 2° C., RH 60% ± 5%
MEASUREMENT KIND: Related Substances: Desflouro (%)
One number for each entry, in %.

Recorded Related Substances: Desflouro of O=C(O)C[C@H](O)C[C@H](O)/C=C/c1c(C2CC2)nc2ccccc2c1-c1ccc(F)cc1 [pitavastatin calcium] , please.
0.05
